# Tested on: Plasmodium falciparum, strain NF54, erythrocytic stages
# Assay name: microbe, parasite or virus in culture
# Condition summary: NF54, read-out: P. falc. IC50
pIC50: −log10 of the molar value.
Reported property: pIC50

>  <Compound>
CC1=C(Cc2ccc([N+](=O)[O-])cc2)C(=O)c2ccccc2C1=O

>  <pIC50>
6.95

$$$$

I: CC1=C(Cc2cccc(NC(=O)CCC(F)(F)F)c2)C(=O)c2ccccc2C1=O
II: CC1=C(Cc2ccc(Cl)nc2)C(=O)c2ccccc2C1=O
Could you tell me which of I and II has the lower pIC50 reading? Kindly state the label of the option you pick.
I

a: CCN(CC)CCCC(C)Nc1ccnc2cc(Cl)ccc12 (stereo not drawn) [Chl., chloroquine, reference compound]
b: CC1=C(Cc2ccc(F)cc2)C(=O)c2ccccc2C1=O
c: CC(=O)Nc1cccc(CC2=C(C)C(=O)c3ccccc3C2=O)c1
Arrange by pIC50, high to low. Answer by listing the labels in the order asked for.
a, b, c
(a: 8.52, b: 7.37, c: 6.12)

A: CC1=C(Cc2ccc(NC(=O)C(F)(F)F)cc2)C(=O)c2ccccc2C1=O
B: CC1=C(Cc2ccc([N+](=O)[O-])cc2F)C(=O)c2ccccc2C1=O
C: CC1=C(Cc2cccc(OC(F)(F)F)c2)C(=O)c2ccccc2C1=O
Hey, quick one: sort these by pIC50, low to high? Write the labels, ordered according to the request.
A, C, B

A: O=C1C=C(Cc2ccc(C(F)(F)F)cc2)C(=O)c2ccccc21
B: CC1=C(Cc2cccc(NC(=O)C(F)(F)F)c2)C(=O)c2ccccc2C1=O
Of A and B , which shows the smaller pIC50 value? Kindly state the label of the option you pick.
A
(A: 6.16, B: 6.49)
